Population Mitotic Cells (%) values for the molecules below.
- Test system: Fibroblast
- test details: Multiplex assay against human fibroblast
- Format: toxicity, cell-based
- condition context: 48 h, 1 µM, compound concentration 1 uM, replicate 1
recorded metric: Population Mitotic Cells (%)

>  <molecule>
CN1CCC(=C2c3ccccc3CC(=O)c3sccc32)CC1.O=C(O)/C=C/C(=O)O [KETOTIFEN FUMARATE]

>  <quantitative readout>
38

$$$$
>  <molecule>
COc1cc(N2CCN(C)CC2)ccc1Nc1ncc2c(n1)N(C)c1ccccc1C(=O)N2C

>  <quantitative readout>
45

$$$$
>  <molecule>
Cc1cn(-c2cc(NC(=O)c3ccc(C)c(Nc4nccc(-c5cccnc5)n4)c3)cc(C(F)(F)F)c2)cn1

>  <quantitative readout>
32

$$$$

---

- Test system: Fibroblast
- test details: Multiplex assay against human fibroblast
- Format: toxicity, cell-based
- condition context: 48 h, 10 µM, compound concentration 10 uM, replicate 1
recorded metric: Population Membrane Permeable-Phenotype (%)

>  <compound>
CCc1cccc(CC)c1NC(=O)c1nn(C)c2c1CCc1cnc(Nc3ccc(C(=O)NC4CCN(C)CC4)cc3OC(F)(F)F)nc1-2

>  <assay system>
Fibroblast

>  <quantitative readout>
16

$$$$
>  <compound>
O=C(Nc1ccc(-n2nc(-c3cccnc3)cc2C(F)(F)F)cn1)c1ccc(-c2ccccc2)c(F)c1

>  <assay system>
Fibroblast

>  <quantitative readout>
35

$$$$
>  <compound>
CCn1c(=O)c(-c2ccc(-c3cncs3)cc2Cl)cc2cnc(Nc3ccc(N4CCN(C)CC4)cc3)nc21

>  <assay system>
Fibroblast

>  <quantitative readout>
24

$$$$
>  <compound>
COc1cc(N2CCN(C)CC2)ccc1Nc1ncc2c(n1)N(C)c1ccccc1C(=O)N2C

>  <assay system>
Fibroblast

>  <quantitative readout>
7

$$$$
>  <compound>
Cc1cc(C)c(S(=O)(=O)N(Cc2ccc(-c3cccc(S(C)(=O)=O)c3)cc2)Cc2ccc(C(F)(F)F)o2)c(C)c1

>  <assay system>
Fibroblast

>  <quantitative readout>
45

$$$$
>  <compound>
Cl.O=C(c1ccc(Nc2nccc(-c3cc4ccccc4s3)n2)cc1)N1CCC(N2CCCC2)CC1

>  <assay system>
Fibroblast

>  <quantitative readout>
33

$$$$
>  <compound>
CCOc1cc(C(=O)N2CCC(N3CCN(C)CC3)CC2)ccc1Nc1ncc2c(n1)N(C1CCCC1)c1ccccc1C(=O)N2C

>  <assay system>
Fibroblast

>  <quantitative readout>
33

$$$$
>  <compound>
CCOC(=O)c1c(C)[nH]c2ccc3c(c12)CN1CCc2cc(OC)ccc2C1O3 (stereo not given)

>  <assay system>
Fibroblast

>  <quantitative readout>
10

$$$$
>  <compound>
CCCn1c(=O)c2[nH]c(-c3cnn(Cc4cccc(C(F)(F)F)c4)c3)nc2n(CC)c1=O

>  <assay system>
Fibroblast

>  <quantitative readout>
41

$$$$
>  <compound>
CN1C2CCC1CC(OC(c1ccc(F)cc1)c1ccc(F)cc1)C2.Cl (stereo not given)

>  <assay system>
Fibroblast

>  <quantitative readout>
9

$$$$

---

- System: HEK-293T
- test details: Multiplex assay against HEK293T
- Assay type: toxicity, cell-based
- condition context: human, 12 h, 1 µM, compound concentration 1 uM, replicate 2
Decision: Population Healthy Nuclei (%) >= 40% yields true, all other cases yield false.

>  <compound>
CN(C)C(=O)C(CCN1CCC(O)(c2ccc(Cl)cc2)CC1)(c1ccccc1)c1ccccc1.Cl [LOPERAMIDE HYDROCHLORIDE]

>  <group>
false

$$$$
>  <compound>
CCOc1cc(C(=O)N2CCC(N3CCN(C)CC3)CC2)ccc1Nc1ncc2c(n1)N(C1CCCC1)c1ccccc1C(=O)N2C

>  <group>
false

$$$$
>  <compound>
CNc1cc(Oc2cc(C(=O)Nc3cc(N4CCN(C)CC4)cc(C(F)(F)F)c3)ccc2C)ncn1

>  <group>
false

$$$$
>  <compound>
Cl.O=c1c2cccn2c2ccccc2n1CCCN1CCC(c2ccc(Cl)cc2)CC1

>  <group>
false

$$$$
>  <compound>
Cc1ccc(C(=O)Nc2cccc(C(F)(F)F)c2)cc1Nc1nc(-c2cccnc2)nc2c1cnn2C

>  <group>
false

$$$$
>  <compound>
COc1cccc2cc(-c3nc([C@H]4CC[C@H](C(=O)O)CC4)n4ncnc(N)c34)[nH]c12

>  <group>
true

$$$$
>  <compound>
CN[C@@H]1C[C@H]2O[C@@](C)([C@@H]1OC)n1c3ccccc3c3c4c(c5c6ccccc6n2c5c31)C(=O)NC4

>  <group>
false

$$$$
>  <compound>
CCc1cccc(CC)c1NC(=O)c1nn(C)c2c1CCc1cnc(Nc3ccc(N4CCN(C)CC4)cc3OC)nc1-2

>  <group>
true

$$$$
>  <compound>
Cc1cc(C)c(S(=O)(=O)N(Cc2ccc(-c3cccc(S(C)(=O)=O)c3)cc2)Cc2ccc(C(F)(F)F)o2)c(C)c1

>  <group>
true

$$$$
>  <compound>
Cl.O=C(c1ccc(Nc2nccc(-c3cc4ccccc4s3)n2)cc1)N1CCC(N2CCCC2)CC1

>  <group>
true

$$$$
>  <compound>
C[C@H]1Oc2cc(cnc2N)-c2c(nn(C)c2C#N)CN(C)C(=O)c2ccc(F)cc21

>  <group>
true

$$$$
>  <compound>
O=C(Nc1cccnn1)N1CCC(=Cc2cccc(Oc3ccc(C(F)(F)F)cn3)c2)CC1

>  <group>
true

$$$$
>  <compound>
COC(=N)c1nc2ccc3ncnc(Nc4ccc(OC)cc4F)c3c2s1

>  <group>
true

$$$$
>  <compound>
CCN1CCN(Cc2ccc(Nc3ncc(F)c(-c4cc(F)c5nc(C)n(C(C)C)c5c4)n3)nc2)CC1.CS(=O)(=O)O

>  <group>
false

$$$$
>  <compound>
CCn1c(=O)c(-c2ccc(-c3cncs3)cc2Cl)cc2cnc(Nc3ccc(N4CCN(C)CC4)cc3)nc21

>  <group>
true

$$$$
>  <compound>
O=C1N/C(=N/c2ccccc2F)S/C1=C\c1ccc(C(=O)O)cc1

>  <group>
true

$$$$
>  <compound>
CCN1CCN(c2ccc(Nc3cc(N(C)C(=O)Nc4c(Cl)c(OC)cc(OC)c4Cl)ncn3)cc2)CC1

>  <group>
true

$$$$
>  <compound>
O=C1NC(=O)C(c2cnc3ccccn23)=C1c1cn2c3c(cc(F)cc13)CN(C(=O)N1CCCCC1)CC2

>  <group>
false

$$$$
>  <compound>
CN1CCN(C(=O)C(C)(C)c2ccc(C(=O)Nc3cn4cc(-c5cc(C(C)(C)C)cc(C(C)(C)C)c5)ccc4n3)cc2)CC1

>  <group>
true

$$$$
>  <compound>
O=C(Nc1ccc(-c2ccnc(Nc3ccc(N4CCOCC4)cc3)n2)cc1)[C@@H]1CCCN1

>  <group>
true

$$$$
>  <compound>
Cc1cn(-c2cc(NC(=O)c3ccc(C)c(Nc4nccc(-c5cccnc5)n4)c3)cc(C(F)(F)F)c2)cn1

>  <group>
false

$$$$
>  <compound>
C=CCn1c(=O)c2cnc(Nc3ccc(N4CCN(C)CC4)cc3)nc2n1-c1cccc(C(C)(C)O)n1

>  <group>
true

$$$$

---

- Test system: U2OS
- test details: Incucyte cell viability with U2OS; note: filed as whole numbers so only -1 and 0 and 1 occur
- Format: toxicity, cell-based
- condition context: human, 18 h, 10 µM, compound concentration 10 uM, replicate number 1, timepoint 18 hours

>  <compound>
COc1cc(N2CCC(N3CCN(C)CC3)CC2)ccc1Nc1ncnc(Nc2ccccc2S(=O)(=O)C(C)C)n1 [ASP-3026]

>  <assay system>
U2OS

>  <Growth Rate>
0

$$$$
>  <compound>
CC(C)c1onc(-c2c(Cl)cccc2Cl)c1COc1ccc(/C=C/c2cccc(C(=O)O)c2)c(Cl)c1

>  <assay system>
U2OS

>  <Growth Rate>
1

$$$$
>  <compound>
O=C(Nc1ccc(Cl)cc1)Nc1cccc(-c2cccc(N3CCCC3)n2)c1

>  <assay system>
U2OS

>  <Growth Rate>
0

$$$$
>  <compound>
CN1CCN(C(=O)C(C)(C)c2ccc(C(=O)Nc3cn4cc(-c5cc(C(C)(C)C)cc(C(C)(C)C)c5)ccc4n3)cc2)CC1 [T3-CLK-N]

>  <assay system>
U2OS

>  <Growth Rate>
0

$$$$
>  <compound>
Cl.Oc1ccc2c3c1O[C@H]1c4[nH]c5c(c4C[C@@]4(O)[C@@H](C2)N(CC2CC2)CC[C@]314)C[C@@]1(O)[C@H]2Cc3ccc(O)c4c3[C@@]1(CCN2CC1CC1)[C@H]5O4

>  <assay system>
U2OS

>  <Growth Rate>
1

$$$$
>  <compound>
CC(C)(Sc1ccc(CCN(CCCCC2CCCCC2)C(=O)NC2CCCCC2)cc1)C(=O)O [GW7647]

>  <assay system>
U2OS

>  <Growth Rate>
1

$$$$
>  <compound>
CCCNS(=O)(=O)Nc1ncnc(OCCOc2ncc(Br)cn2)c1-c1ccc(Br)cc1

>  <assay system>
U2OS

>  <Growth Rate>
0

$$$$
>  <compound>
CC(C)C[C@H](CO)Nc1nc(S[C@@H](C)c2ccccc2)nc2nc(N)sc12 [AZD-8797]

>  <assay system>
U2OS

>  <Growth Rate>
0

$$$$
>  <compound>
NC(CCP(=O)(O)O)C(=O)O (racemic)

>  <assay system>
U2OS

>  <Growth Rate>
1

$$$$
>  <compound>
Cc1nc(-c2ccc(C(F)(F)F)cc2)sc1COc1ccc([C@H](CC(=O)O)c2ccon2)cc1

>  <assay system>
U2OS

>  <Growth Rate>
0

$$$$
>  <compound>
COc1cc(-c2cn(C)c(=O)c3cnccc23)c(OC)cc1CN(C)C

>  <assay system>
U2OS

>  <Growth Rate>
0

$$$$
>  <compound>
Cl.O=c1c2cccn2c2ccccc2n1CCCN1CCC(c2ccc(Cl)cc2)CC1

>  <assay system>
U2OS

>  <Growth Rate>
1

$$$$
>  <compound>
O=C1NCN(c2ccccc2)C12CCN(CC1COc3ccccc3O1)CC2 (stereo not drawn) [SPIROXATRINE]

>  <assay system>
U2OS

>  <Growth Rate>
1

$$$$
>  <compound>
O=C(Nc1cccnn1)N1CC(C/C=C/c2cncc(Oc3ccc(C(F)(F)F)cn3)n2)C1

>  <assay system>
U2OS

>  <Growth Rate>
1

$$$$
>  <compound>
COc1cc2ncnc(Nc3ccc(F)c(Cl)c3)c2cc1NC(=O)/C=C/CN1CCCCC1 [DACOMITINIB ANHYDROUS]

>  <assay system>
U2OS

>  <Growth Rate>
0

$$$$
>  <compound>
O=C1O[C@]2(CC[C@H](C(=O)Nc3ccn(-c4ccccc4F)n3)CC2)c2cnccc21 [MK-0557]

>  <assay system>
U2OS

>  <Growth Rate>
1

$$$$
>  <compound>
CC[C@H](CO)Nc1nc(NCc2ccccc2)c2ncn(C(C)C)c2n1 [SELICICLIB]

>  <assay system>
U2OS

>  <Growth Rate>
0

$$$$
>  <compound>
CC(C)(C(=O)O)c1ccc(C(O)CCCN2CCC(C(O)(c3ccccc3)c3ccccc3)CC2)cc1.Cl (stereo not drawn) [FEXOFENADINE HYDROCHLORIDE]

>  <assay system>
U2OS

>  <Growth Rate>
1

$$$$
>  <compound>
CCn1c(=O)c(-c2ccc(-c3cncs3)cc2Cl)cc2cnc(Nc3ccc(N4CCN(C)CC4)cc3)nc21

>  <assay system>
U2OS

>  <Growth Rate>
0

$$$$
>  <compound>
Cn1cc(CCn2cnc(-c3cnn(C)c3)c2-c2ccc(C#N)cc2)cn1

>  <assay system>
U2OS

>  <Growth Rate>
1

$$$$
>  <compound>
NC(=O)c1cccc(-c2cc(Nc3ccc(OC(F)(F)F)cc3)ncn2)c1

>  <assay system>
U2OS

>  <Growth Rate>
1

$$$$
>  <compound>
C=C(c1ccc(C(=O)O)cc1)c1cc2c(cc1C)C(C)(C)CCC2(C)C [BEXAROTENE]

>  <assay system>
U2OS

>  <Growth Rate>
1

$$$$
>  <compound>
O=S(=O)(NC1CCC(c2cc(F)ccc2F)(S(=O)(=O)c2ccc(Cl)cc2)CC1)C(F)(F)F (stereo not drawn) [MRK-560]

>  <assay system>
U2OS

>  <Growth Rate>
0

$$$$
>  <compound>
Cl.O=C(c1ccc(Nc2nccc(-c3cc4ccccc4s3)n2)cc1)N1CCC(N2CCCC2)CC1

>  <assay system>
U2OS

>  <Growth Rate>
0

$$$$
>  <compound>
c1ccc(Nc2nc3c(s2)CCCc2[nH]ncc2-3)nc1

>  <assay system>
U2OS

>  <Growth Rate>
0

$$$$
>  <compound>
COCC(=O)NC/C=C/c1ccc2ncnc(Nc3ccc(Oc4ccc(C)nc4)c(C)c3)c2c1 [CP-724714]

>  <assay system>
U2OS

>  <Growth Rate>
0

$$$$
>  <compound>
Cc1c(NC(=O)c2cc(C(N)=O)nc3cc(F)ccc23)c(C(F)(F)F)nn1Cc1ccc(C#N)cc1 [BAY-876]

>  <assay system>
U2OS

>  <Growth Rate>
0

$$$$
>  <compound>
COC1CCN(c2cccc(-c3cc(NC(C)=O)nc(-n4nc(C)cc4C)n3)n2)CC1

>  <assay system>
U2OS

>  <Growth Rate>
0

$$$$
